experimental.conditions: in 1,2-dichloroethane, 313.15 K
parameter: solubility (mole fraction)
Keep the answer to the number alone.

Ask: Using the record for `O=[N+]([O-])c1cc(F)c(F)cc1[N+](=O)[O-]` , report its solubility (mole fraction).
Result: 0.00229

----------
experimental.conditions: in chloroform, 318.15 K
parameter: solubility (mole fraction)
Keep the answer to the number alone.

Ask: Using the record for `O=[N+]([O-])c1cc(F)c(F)cc1[N+](=O)[O-]` , report its solubility (mole fraction).
Result: 0.00339

----------
experimental.conditions: in ethyl acetate, 313.15 K
parameter: solubility (mole fraction)

Ask: Using the record for `O=[N+]([O-])c1cc(F)c(F)cc1[N+](=O)[O-]` , report its solubility (mole fraction).
Result: 0.00342
